# TEST_SYSTEM: UniProt:O75762
# ASSAY_METHOD_TEXT: hTRPA1 CHO Ca2+ AUC EVO (IC50); FLIPR Tetra block of cinnamaldehyde induced calcium influx
# Assay type: cell-based
# PROTOCOL_CONDITIONS: Table 3; CHO cells expressing TRPA1, 75 uM cinnamaldehyde agonist
PROPERTY_NAME: IC50 (µM)

# COMPOUND, REPORTED
data = [
    ("O=C(NCc1cn(-c2ccc(C(F)(F)F)nc2)nc1C(F)(F)F)C1CCC1S(=O)(=O)c1ccc(F)cc1 (single isomer, unassigned; enantiomer 3) [Example 26]", 0.0902),
    ("O=C(NCc1cn(-c2ccc(C(F)(F)F)cc2)nc1C(F)F)[C@@H]1CC[C@@H]1S(=O)(=O)c1ccc(F)cc1 [Example 1]", 0.0346),
    ("CC1(C(=O)NCc2cn(-c3ccc(C(F)(F)F)cc3)nc2Cl)CCCC1S(=O)(=O)c1ccc(F)cc1 (single isomer, unassigned; enantiomer 3) [Example 38]", 0.0471),
    ("O=C(NCc1cn(-c2ccc(C(F)(F)F)cc2)nc1C(F)F)C1CCC1S(=O)(=O)c1ccc(F)cc1 (single isomer, unassigned; enantiomer 2) [Example 18]", 0.096),
    ("O=C(NCc1cn(-c2ccc(C(F)(F)F)cc2)nc1Cl)C1CCCC1S(=O)(=O)c1ccc(F)cc1 (single isomer, unassigned; enantiomer 2) [Example 42]", 0.0455),
    ("O=C(Cc1cn(-c2cnc(C(F)(F)F)nc2)nc1Cl)N[C@@H]1CC[C@@H]1S(=O)(=O)c1ccc(F)cc1 [Example 7]", 0.0403),
    ("CC1(C(=O)NCc2cn(-c3ccc(C(F)(F)F)nc3)nc2Cl)CCCC1S(=O)(=O)c1ccc(F)cc1 (single isomer, unassigned; enantiomer 3) [Example 33]", 0.0885),
    ("O=C(Cc1cn(-c2cnc(C(F)(F)F)nc2)nc1C(F)(F)F)N[C@@H]1CC[C@@H]1S(=O)(=O)c1ccc(F)cc1 [Example 3]", 0.00788),
    ("COc1nn(-c2ccc(C(F)(F)F)cc2)cc1CNC(=O)C1CCC1(C)S(=O)(=O)c1ccc(F)cc1 (single isomer, unassigned; enantiomer 2) [Example 23]", 0.038),
    ("CC1(C(=O)NCc2cn(-c3ccc(C(F)(F)F)nc3)nc2Cl)CCCC1S(=O)(=O)c1ccc(F)cc1 (single isomer, unassigned; enantiomer 1) [Example 31]", 0.0392),
    ("O=C(NCc1cn(-c2cnc(C(F)(F)F)nc2)nc1C(F)F)[C@@H]1CC[C@@H]1S(=O)(=O)c1ccc(F)cc1 [Example 16]", 0.162),
    ("O=C(NCc1cn(-c2ccc(C(F)(F)F)nc2)nc1C(F)F)[C@@H]1CC[C@@H]1S(=O)(=O)c1ccc(F)cc1 [Example 20]", 0.0984),
]

###

Reported pIC50 values for a set of compounds
# TEST_SYSTEM: human TRPA1 (Homo sapiens (Human), UniProt O75762)
# Sequence (O75762 whole entry): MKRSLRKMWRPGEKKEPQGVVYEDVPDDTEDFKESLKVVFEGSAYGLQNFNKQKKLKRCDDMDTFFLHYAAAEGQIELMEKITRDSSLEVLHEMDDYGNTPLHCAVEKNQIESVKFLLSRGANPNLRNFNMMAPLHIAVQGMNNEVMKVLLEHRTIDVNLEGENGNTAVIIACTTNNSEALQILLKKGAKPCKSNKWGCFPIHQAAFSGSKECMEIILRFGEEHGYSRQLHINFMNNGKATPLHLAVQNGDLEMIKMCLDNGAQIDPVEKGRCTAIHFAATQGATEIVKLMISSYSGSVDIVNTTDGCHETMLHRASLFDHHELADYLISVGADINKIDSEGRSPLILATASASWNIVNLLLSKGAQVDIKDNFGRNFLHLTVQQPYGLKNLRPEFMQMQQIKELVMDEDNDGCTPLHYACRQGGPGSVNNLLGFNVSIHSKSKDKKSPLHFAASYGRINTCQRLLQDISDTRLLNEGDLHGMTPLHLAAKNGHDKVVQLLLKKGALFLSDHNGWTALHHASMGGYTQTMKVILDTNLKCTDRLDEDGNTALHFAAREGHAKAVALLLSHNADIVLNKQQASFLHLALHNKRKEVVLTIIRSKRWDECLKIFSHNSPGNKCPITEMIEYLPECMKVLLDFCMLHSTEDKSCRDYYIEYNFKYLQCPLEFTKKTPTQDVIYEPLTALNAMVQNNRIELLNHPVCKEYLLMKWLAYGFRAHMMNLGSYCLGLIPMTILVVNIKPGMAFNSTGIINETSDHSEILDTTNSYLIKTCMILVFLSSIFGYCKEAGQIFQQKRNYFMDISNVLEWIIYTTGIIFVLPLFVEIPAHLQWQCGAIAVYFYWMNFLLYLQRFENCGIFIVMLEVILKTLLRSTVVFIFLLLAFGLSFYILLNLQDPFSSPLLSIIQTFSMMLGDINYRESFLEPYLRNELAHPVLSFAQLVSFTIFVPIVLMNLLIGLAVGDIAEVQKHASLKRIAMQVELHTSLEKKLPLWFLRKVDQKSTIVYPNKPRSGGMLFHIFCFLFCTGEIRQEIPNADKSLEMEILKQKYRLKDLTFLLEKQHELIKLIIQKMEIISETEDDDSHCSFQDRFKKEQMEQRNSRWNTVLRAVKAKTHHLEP
# ASSAY_METHOD_TEXT: hTRPA1 CHO Ca2+ AUC EVO (IC50); FLIPR Tetra block of cinnamaldehyde induced calcium influx
# Type: cell-based
# PROTOCOL_CONDITIONS: Table 1; CHO cells expressing TRPA1, 75 uM cinnamaldehyde agonist
pIC50: −log10 of the molar value.
PROPERTY_NAME: pIC50

# COMPOUND, REPORTED
rows = [
    ("O=C(NCc1cn(-c2ccc(C(F)(F)F)cc2)nc1Cl)C1CCCC1S(=O)(=O)c1ccc(F)cc1 (single isomer, unassigned; enantiomer 2) [Example 42]", 7.34),
    ("O=C(Cc1cn(-c2cnc(C(F)(F)F)nc2)nc1C(F)F)N[C@@H]1CC[C@@H]1S(=O)(=O)c1ccc(F)cc1 [Example 9]", 7.45),
    ("COc1nn(-c2ccc(C(F)(F)F)cc2)cc1CNC(=O)C1CCC1(C)S(=O)(=O)c1ccc(F)cc1 (single isomer, unassigned; enantiomer 2) [Example 23]", 7.42),
    ("CC1(C(=O)NCc2cn(-c3ccc(C(F)(F)F)cc3)nc2Cl)CCCC1S(=O)(=O)c1ccc(F)cc1 (single isomer, unassigned; enantiomer 1) [Example 5]", 8.06),
]

###

# TEST_SYSTEM: human TRPA1 (Homo sapiens (Human))
# ASSAY_METHOD_TEXT: hTRPA1 CHO Ca2+ AUC EVO (IC50); FLIPR Tetra block of cinnamaldehyde induced calcium influx
# Type: cell-based
# PROTOCOL_CONDITIONS: Table 3; CHO cells expressing TRPA1, 75 uM cinnamaldehyde agonist
pIC50: −log10 of the molar value.
Threshold check on pIC50: at or above 7 gives true (1), strictly below gives false (0).

# COMPOUND, TEST_SYSTEM, CLASS_ASSIGNMENT
measured = [
    ("O=C(Cc1cn(-c2cnc(C(F)(F)F)nc2)nc1C1CC1)N[C@@H]1CC[C@@H]1S(=O)(=O)c1ccc(F)cc1 [Example 6]", "human TRPA1 (Homo sapiens (Human))", "true (1)"),
    ("O=C(NCc1cn(-c2ccc(C(F)(F)F)cc2)nc1C(F)F)[C@@H]1CC[C@@H]1S(=O)(=O)c1ccc(F)cc1 [Example 17]", "human TRPA1 (Homo sapiens (Human))", "true (1)"),
    ("O=C(NCc1cn(-c2ccc(C(F)(F)F)nc2)nc1C(F)(F)F)C1CCC1S(=O)(=O)c1ccc(F)cc1 (single isomer, unassigned; enantiomer 2) [Example 25]", "human TRPA1 (Homo sapiens (Human))", "false (0)"),
    ("O=C(NCc1cc(-c2cccc(C(F)(F)F)c2)ncn1)[C@@H]1CC[C@@H]1S(=O)(=O)c1ccc(F)cc1 [Example 21]", "human TRPA1 (Homo sapiens (Human))", "false (0)"),
    ("O=C(NCc1cn(-c2ccc(C(F)(F)F)nc2)nc1C(F)(F)F)[C@@H]1CCC[C@@H]1S(=O)(=O)c1ccc(F)cc1 [Example 4]", "human TRPA1 (Homo sapiens (Human))", "true (1)"),
]

###

# TEST_SYSTEM: UniProtKB O75762
# ASSAY_METHOD_TEXT: hTRPA1 CHO Ca2+ AUC EVO (IC50); FLIPR Tetra block of cinnamaldehyde induced calcium influx
# Type: cell-based
# PROTOCOL_CONDITIONS: Table 1; CHO cells expressing TRPA1, 75 uM cinnamaldehyde agonist
pIC50: −log10 of the molar value.
Reported pIC50 values for a set of molecules

# MOLECULE, TEST_SYSTEM, pIC50
measured = [
    ("O=C(NCc1cn(-c2ccc(C(F)(F)F)nc2)nc1C(F)(F)F)[C@@H]1CC[C@@H]1S(=O)(=O)c1ccc(F)cc1", "UniProtKB O75762", 7.38),
    ("COc1nn(-c2ccc(C(F)(F)F)nc2)cc1CC(=O)N[C@@H]1CC[C@@H]1S(=O)(=O)c1ccc(F)cc1", "UniProtKB O75762", 7.73),
    ("COc1nn(-c2ccc(C(F)(F)F)cc2)cc1CC(=O)N[C@@H]1CC[C@@H]1S(=O)(=O)c1ccc(F)cc1", "UniProtKB O75762", 8.28),
    ("CC1(C(=O)NCc2cn(-c3ccc(C(F)(F)F)cc3)nc2Cl)CCCC1S(=O)(=O)c1ccc(F)cc1 (single isomer, unassigned; enantiomer 2) [Example 37]", "UniProtKB O75762", 7.62),
    ("O=C(Cc1cn(-c2cnc(C(F)(F)F)nc2)nc1C1CC1)N[C@@H]1CC[C@@H]1S(=O)(=O)c1ccc(F)cc1", "UniProtKB O75762", 7.33),
    ("O=C(Cc1cn(-c2cnc(C(F)(F)F)nc2)nc1C(F)(F)F)N[C@@H]1CC[C@@H]1S(=O)(=O)c1ccc(F)cc1", "UniProtKB O75762", 8.10),
]

###

Reported pIC50 values for a set of compounds
# TEST_SYSTEM: human TRPA1 (Homo sapiens (Human), UniProt O75762)
# ASSAY_METHOD_TEXT: hTRPA1 CHO Ca2+ AUC EVO (IC50); FLIPR Tetra block of cinnamaldehyde induced calcium influx
# Type: cell-based
# PROTOCOL_CONDITIONS: Table 1; CHO cells expressing TRPA1, 75 uM cinnamaldehyde agonist
pIC50: −log10 of the molar value.

# COMPOUND, TEST_SYSTEM, pIC50
rows = [
    ("COc1nn(-c2ccc(C(F)(F)F)nc2)cc1CNC(=O)C1(C)CCCC1S(=O)(=O)c1ccc(F)cc1 (single isomer, unassigned; enantiomer 1) [Example 34]", "human TRPA1 (Homo sapiens (Human), UniProt O75762)", 7.48),
    ("CC1(C(=O)NCc2cn(-c3ccc(C(F)(F)F)cc3)nc2Cl)CCCC1S(=O)(=O)c1ccc(F)cc1 (single isomer, unassigned; enantiomer 3) [Example 38]", "human TRPA1 (Homo sapiens (Human), UniProt O75762)", 7.33),
    ("O=C(Cc1cn(-c2cnc(C(F)(F)F)nc2)nc1Cl)N[C@@H]1CC[C@@H]1S(=O)(=O)c1ccc(F)cc1 [Example 7]", "human TRPA1 (Homo sapiens (Human), UniProt O75762)", 7.39),
    ("O=C(NCc1cn(-c2ccc(C(F)(F)F)cc2)nc1Cl)[C@@H]1CC[C@@H]1S(=O)(=O)c1ccc(F)cc1 [Example 28]", "human TRPA1 (Homo sapiens (Human), UniProt O75762)", 7.71),
    ("O=C(NCc1cn(-c2ccc(C(F)(F)F)cc2)nc1Cl)[C@@H]1CCC[C@@H]1S(=O)(=O)c1ccc(F)cc1 [Example 43]", "human TRPA1 (Homo sapiens (Human), UniProt O75762)", 7.41),
    ("CC1(C(=O)NCc2cn(-c3ccc(C(F)(F)F)nc3)nc2Cl)CCCC1S(=O)(=O)c1ccc(F)cc1 (single isomer, unassigned; enantiomer 1) [Example 31]", "human TRPA1 (Homo sapiens (Human), UniProt O75762)", 7.41),
]
